- Test system: DU145
- TEST_DETAILS: XTT cell viability assay, DU145
- Assay type: cell-based, human
- DETAILS: DU145, 72 h incubation
QUANTITY: pIC50
Quick note: pIC50 means taking -log10 of the concentration in moles per liter.

COMPOUND	TGT	pIC50
O=C(O)C[P+]([Au-][Cl])(c1ccccc1)c1ccccc1 [compound 6, [HOC(O)CH2PPh2AuCl]]	DU145	4.50
COc1ccc(C[C]2([Ti+2][C]3(Cc4ccc(OC)cc4)C=CC=C3)C=CC=C2)cc1.[Cl-].[Cl-] [Titanocene Y]	DU145	4.26

Now consider the entry below.
Query: Which pIC50 value is on record for N.N.[Cl][Pt][Cl] [cisplatin] ?
Reply: 4.92

---

Below, each entry is listed alongside its reported pIC50.
- Test system: HEK-293T
- TEST_DETAILS: XTT cell viability assay, HEK-293T
- Format: cell-based, human
- DETAILS: HEK-293T (nontumorigenic), 72 h incubation
Quick note: pIC50 means taking -log10 of the concentration in moles per liter.

MOLECULE	TGT	pIC50
O=C(O)C[P+]([Au-][Cl])(c1ccccc1)c1ccccc1 [compound 6, [HOC(O)CH2PPh2AuCl]]	HEK-293T	5.01

Now consider the entry below.
Query: Which pIC50 value is on record for N.N.[Cl][Pt][Cl] [cisplatin] ?
Reply: 5.49

---

- Test system: Caki-1
- TEST_DETAILS: XTT cell viability assay, Caki-1
- Type: cell-based, human
- DETAILS: Caki-1, 72 h incubation
QUANTITY: pIC50
Quick note: pIC50 means taking -log10 of the concentration in moles per liter.

Observe how each entry below is paired with its result.
COMPOUND	pIC50
COc1ccc(C[C]2([Ti+2][C]3(Cc4ccc(OC)cc4)C=CC=C3)C=CC=C2)cc1.[Cl-].[Cl-] [Titanocene Y]	4.53
O=C(O)C[P+]([Au-][Cl])(c1ccccc1)c1ccccc1 [compound 6, [HOC(O)CH2PPh2AuCl]]	4.64

Now consider the entry below.
Query: Which pIC50 value is on record for N.N.[Cl][Pt][Cl] [cisplatin] ?
Reply: 4.54

---

- Tested on: UO31
- TEST_DETAILS: XTT cell viability assay, UO31
- Type: cell-based, human
- DETAILS: UO31, 24 h incubation
Below, each entry is listed alongside its reported IC50.

MOLECULE	IC50
COc1ccc(C[C]2([Ti+2][C]3(Cc4ccc(OC)cc4)C=CC=C3)C=CC=C2)cc1.[Cl-].[Cl-]	> 200 µM
O=C(O)C[P+]([Au-][Cl])(c1ccccc1)c1ccccc1 [compound 6, [HOC(O)CH2PPh2AuCl]]	27.3 µM
[Cl-].[Cl-].[Ti+4].c1cc[cH-]c1.c1cc[cH-]c1 [titanocene dichloride]	> 200 µM

Now consider the entry below.
Query: Which IC50 value is on record for N.N.[Cl][Pt][Cl] [cisplatin] ?
Reply: > 100 µM
